B1: tRNA (parent)
chain: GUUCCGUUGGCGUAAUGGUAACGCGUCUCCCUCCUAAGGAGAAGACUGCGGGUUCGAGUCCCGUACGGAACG

- Variants of: B1
- test: yeast fitness relative to wild type (ratio to wild type); higher = fitter; tRNA-Arg(CCU), competitive growth, 37 C, YPD
Variants at the floor of the assay were thinned out.
For each of the variants below, state its yeast fitness.

Provide measured yeast fitness value, entry: G17A C34A G52U ≤ 0.5

Indicate the recorded yeast fitness value for this variant: U2C C4A C34A A43G G52C C60G A65G ≤ 0.5

Give yeast fitness for the following variant: A15U A21C C24G C29U A42C G56U U59A ≤ 0.5

Let me know recorded yeast fitness for C5U C31G G41A G52C C60U C62G C66G , thanks. ≤ 0.5

Please list yeast fitness recorded for the variant C5A G51C G63C A65C ≤ 0.5

State its yeast fitness for this variant: G6A C24U A37U A40U ≤ 0.5

Specify yeast fitness for G10A G38U G67U and stop. ≤ 0.5

Read off the recorded yeast fitness for C11A G18A C49A C62G ≤ 0.5

Give the measured yeast fitness for C30U G58A C61G G68C A70U ≤ 0.5

Give yeast fitness for C4G G6A U13G A14G A69U ≤ 0.5

Let me know recorded yeast fitness for U13A G23C C27G C61A C62U , thanks. ≤ 0.5

Please give the documented yeast fitness of U2A U3G C11A G12A U16C C22G C62U ≤ 0.5

Quote yeast fitness reported for A15G G44C A57U please. ≤ 0.5

Read off the recorded yeast fitness for A42G A45U U64C A70C ≤ 0.5

Please report yeast fitness for the following variant: U13C U54A C60U ≤ 0.5

Supply reported yeast fitness belonging to this variant: G6A A37C 0.824

Provide yeast fitness value for the following variant: C11A G51A 0.618

In one line, give reported yeast fitness of the entry A21C A42U G52A C60A A69G . ≤ 0.5

Please give measured yeast fitness of the following entry: G17C C29G A37C U64C 0.771

Given U35C G39A U53A , respond with its yeast fitness. 0.567

Return yeast fitness for the following variant: C5A G12C G18C C30A C31G U54G A65G ≤ 0.5

Identify yeast fitness associated with the variant A14G A15C A37C C46A A69U ≤ 0.5

Note down yeast fitness recorded for A42U C49U G50A 0.651

Give the reported value of yeast fitness for this record: C30U U53A 0.672

Note yeast fitness for the variant shown: C31G A40G C49U G50C ≤ 0.5

// fetch yeast fitness given entry U26C C27U C62A 0.658

Give the value of yeast fitness reported for the following: U16A C60G G67A ≤ 0.5

Read the entry C30U G44A C46A and write its reported yeast fitness. 0.637

Answer with the recorded yeast fitness for the variant listed here: G41A C62A 0.777

Consider the variant U2C G10C C11U C34A A37C C60A G67C . State its measured yeast fitness. 0.7

Specify yeast fitness for G48A G67C and stop. 1.02

Determine its reported yeast fitness: U3A U7C A15U G23C C27U G52A ≤ 0.5

Fill in reported yeast fitness for this entry: C11A C22U C55A ≤ 0.5

Read the entry A14C A42U C55G and write its reported yeast fitness. ≤ 0.5

Supply measured yeast fitness of U8A A21U C30U G48A G67C A69U in your reply. ≤ 0.5

Using known records, supply yeast fitness for A21C C31A C46A U54C ≤ 0.5

Give recorded yeast fitness. G12A C24G U26G G39C C49G A65G ≤ 0.5
